test_target: 5-hydroxytryptamine receptor 1A (Rattus norvegicus, UniProt P19327)
Sequence (P19327 whole entry): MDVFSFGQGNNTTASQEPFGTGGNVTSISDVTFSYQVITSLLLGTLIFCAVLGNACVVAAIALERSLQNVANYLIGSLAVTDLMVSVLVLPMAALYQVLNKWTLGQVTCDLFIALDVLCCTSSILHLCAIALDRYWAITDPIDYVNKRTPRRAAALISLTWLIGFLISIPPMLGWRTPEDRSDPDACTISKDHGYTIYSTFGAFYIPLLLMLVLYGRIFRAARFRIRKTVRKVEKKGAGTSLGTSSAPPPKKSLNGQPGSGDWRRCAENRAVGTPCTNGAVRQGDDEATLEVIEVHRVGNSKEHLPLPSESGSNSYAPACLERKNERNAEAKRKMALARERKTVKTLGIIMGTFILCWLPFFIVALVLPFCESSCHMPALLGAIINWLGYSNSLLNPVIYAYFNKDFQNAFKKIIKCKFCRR
Field pKi: reported value for 5-hydroxytryptamine receptor 1A (Rattus norvegicus, UniProt P19327); entries drawn from several documents.
As a rule, pKi stands for the negative log10 of the concentration, concentration in M.

Would you mind telling me what pKi value was observed for O=C(c1ccc(F)c(Cl)c1)N1CCC(F)(CNCc2ncc(C(F)F)cn2)CC1 ?
7.60

Param item = O=c1[nH]c2ccccc2n1CCN1CCN(c2cccc(C(F)(F)F)c2)CC1 ; retrieve measured pKi.
7.93

Name the reported pKi value associated with the compound O=C1C2CCCN2C(=O)N1CCCCCCCCNCC1CCc2ccccc2O1 (stereo not given)
7.06

GET /values?readout=pKi&item= O=C(C1CCCCC1)N1CCC(CNCc2cccc(-n3cccn3)n2)CC1
7.53

Fill in: pKi of O=S(=O)(c1ccccc1)C1(CCCN2CCc3ccccc3C2)CCC1 is ___
7.46

For COc1cccc2c1CCCC2CCCNCCc1ccccc1 (stereo not given) , what is its reported pKi?
7.50

Look up pKi: O=C(c1ccc(Cl)c(Cl)c1)N1CCC(CNCc2cccc(Cl)n2)CC1
8.34

Would you kindly share the measured pKi for O=C(NCCCN1CCN(c2ccccc2)CC1)c1ccccn1 ?
6.98

I have this compound here, COc1ccccc1N1CCN(CCCCN2CC(=O)N3CCCC3C2=O)CC1 (stereo not given) , and I need its recorded pKi.
7.92

Entry CCOC(=O)c1[nH]c2ccc(CCN3C(=O)CNC3=O)cc2c1CCN(C)C has what pKi?
5.03

Look up pKi: CN1CCN(c2nc3cc(C(F)(F)F)ccc3n3cccc23)CC1
8.02

Name the reported pKi value associated with the compound CC(=O)OC12C=C(C)C(C(C)C1)C1C(=O)N(CCCN3CCN(c4ccccc4)CC3)C(=O)C12 (stereo not given)
6.53

----------
test_target: 5-hydroxytryptamine receptor 1A (Rattus norvegicus)
Sequence (P19327 whole entry): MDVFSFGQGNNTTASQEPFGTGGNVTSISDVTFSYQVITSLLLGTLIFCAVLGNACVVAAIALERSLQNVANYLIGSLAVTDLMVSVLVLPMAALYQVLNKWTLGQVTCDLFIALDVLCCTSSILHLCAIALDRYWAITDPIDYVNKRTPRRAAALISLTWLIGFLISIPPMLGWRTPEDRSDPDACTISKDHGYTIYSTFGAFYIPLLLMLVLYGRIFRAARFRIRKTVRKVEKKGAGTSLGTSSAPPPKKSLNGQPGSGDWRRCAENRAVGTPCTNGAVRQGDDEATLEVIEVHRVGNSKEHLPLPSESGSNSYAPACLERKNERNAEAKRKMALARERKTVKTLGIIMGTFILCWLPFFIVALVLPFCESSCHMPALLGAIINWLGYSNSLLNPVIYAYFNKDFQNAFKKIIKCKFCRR
// read-out Ki, gathered for 5-hydroxytryptamine receptor 1A (Rattus norvegicus) from published studies
Output spec: scalar in nM, unitless text.

Please provide the recorded Ki for COc1ccccc1N1CCN(CCCN2C(=O)NC(C)(c3ccccc3)C2=O)CC1 (racemic) , tested on 5-hydroxytryptamine receptor 1A (Rattus norvegicus).
47

Notebook: pull reported Ki for 5-hydroxytryptamine receptor 1A (Rattus norvegicus), entry COc1cccc(C2CCC(N3CCN(c4ccccn4)CC3)CC2)c1 (trans isomer)
0.028

Requested read-out Ki, target or system 5-hydroxytryptamine receptor 1A (Rattus norvegicus), entry Oc1ccccc1N1CCN(Cc2cn(-c3ccccc3)c3ccccc23)CC1
17

Which measured Ki belongs to CN(C)c1cccc(CNCC2CCN(C(=O)c3ccc(Cl)c(Cl)c3)CC2)c1 , tested on 5-hydroxytryptamine receptor 1A (Rattus norvegicus)?
75.9

Query Ki on 5-hydroxytryptamine receptor 1A (Rattus norvegicus) for O=S(=O)(NCCCCN1CCN(c2cccc(Cl)c2)CC1)c1cccc2cccnc12
74

What measured Ki is associated with CCCN(CCCCN1CCOCC1)C1COc2cccc(OC)c2C1 (stereo not drawn) on 5-hydroxytryptamine receptor 1A (Rattus norvegicus)?
3.98

What Ki appears in the records for this compound with 5-hydroxytryptamine receptor 1A (Rattus norvegicus)? O=C(NCCN1CCN(c2ccccn2)CC1)c1ccccn1
32.7

Field: Ki (5-hydroxytryptamine receptor 1A (Rattus norvegicus)). Entry: O=S(=O)(c1ccc(F)cc1)N1CCC(CN2CCC(c3noc4cc(F)ccc34)CC2)CC1
789

Fill in the recorded Ki for this compound, with 5-hydroxytryptamine receptor 1A (Rattus norvegicus) as test system: COc1ccccc1N1CCN(CCn2c(=O)[nH]c3c(-c4ccccc4)c[nH]c3c2=O)CC1
13.4

Observed Ki on 5-hydroxytryptamine receptor 1A (Rattus norvegicus) for CNCC(O)CO (stereo not drawn) , please.
3310

Request: Ki, test system 5-hydroxytryptamine receptor 1A (Rattus norvegicus), entry COc1ccccc1N1CCN(CCn2c(=O)c3cc(-c4ccccc4)[nH]c3n(Cc3ccccc3)c2=O)CC1
198

State its Ki on 5-hydroxytryptamine receptor 1A (Rattus norvegicus): O=C(CCCN1CCN(c2nsc3ccccc23)CC1)c1cc2c3c(c1)CCC(=O)N3CCC2
153

What is its Ki for 5-hydroxytryptamine receptor 1A (Rattus norvegicus)? Entry: O=C1C2CCCN2C(=O)N1CN1CCN(c2cccc(Cl)c2)CC1 (stereo not drawn)
58.4

Under 5-hydroxytryptamine receptor 1A (Rattus norvegicus): Ki value of COc1cccc(C2=CCC(N3CCN(c4ccccn4)CC3)CC2)c1 (stereo not drawn) ?
536

Identify the measured Ki of Cc1cccc(N2CCN(CCC(=O)c3cc4c5c(c3)CCN5C(=O)CC4)CC2)c1C for 5-hydroxytryptamine receptor 1A (Rattus norvegicus).
84.6

Query for 5-hydroxytryptamine receptor 1A (Rattus norvegicus): what Ki does the record show for CNC(=O)c1ccc(CN2CCN(c3ccccc3OC(C)C)CC2)n1C.O=C(O)CCC(=O)O ?
57

Enter reported Ki observed with 5-hydroxytryptamine receptor 1A (Rattus norvegicus) for O=c1ccc(OCCCN2CCC(c3noc4cc(F)ccc34)CC2)nn1-c1cccc(Cl)c1
183

Lab note: need Ki with 5-hydroxytryptamine receptor 1A (Rattus norvegicus) for entry COc1cccc2c1C1CCN(CCCCN3C(=O)c4ccccc4S3(=O)=O)CC1C2 (stereo not drawn) , please look it up.
1.98
